- System: Aspergillus fumigatus
- test protocol: Antifungal activity against Aspergillus fumigatus CBS 117202 after 24 hrs by two-fold dilution method
- Type: functional
- study conditions: CBS 117202, 24 h
property measured: MIC (µg/mL)
Write the number in µg/mL without appending the unit.

In: MIC for CCN1CC(C)(C)OC(=O)C1CC(=O)Nc1ccc2c(ccn2C)c1 (stereo not given) ?
Out: 3.1

In: So what does the record say about MIC for CCN1CCOC(=O)C1CC(=O)Nc1ccc(C(C)C)cc1 (stereo not given) ?
Out: 12.5

In: For the compound CCN1CC(C)(C)OC(=O)C1CC(=O)Nc1ccc(C(C)C)cc1 (stereo not given) , what MIC is on record?
Out: 1.6

In: So what's the measured MIC for this one? CCN1CC(C)(C)OC(=O)C1CC(=O)NCc1ccc(Cl)cc1 (stereo not given)
Out: 6.2

----------
- experimental system: CYP2D6 (Homo sapiens, UniProt P10635)
- Sequence (P10635 whole entry): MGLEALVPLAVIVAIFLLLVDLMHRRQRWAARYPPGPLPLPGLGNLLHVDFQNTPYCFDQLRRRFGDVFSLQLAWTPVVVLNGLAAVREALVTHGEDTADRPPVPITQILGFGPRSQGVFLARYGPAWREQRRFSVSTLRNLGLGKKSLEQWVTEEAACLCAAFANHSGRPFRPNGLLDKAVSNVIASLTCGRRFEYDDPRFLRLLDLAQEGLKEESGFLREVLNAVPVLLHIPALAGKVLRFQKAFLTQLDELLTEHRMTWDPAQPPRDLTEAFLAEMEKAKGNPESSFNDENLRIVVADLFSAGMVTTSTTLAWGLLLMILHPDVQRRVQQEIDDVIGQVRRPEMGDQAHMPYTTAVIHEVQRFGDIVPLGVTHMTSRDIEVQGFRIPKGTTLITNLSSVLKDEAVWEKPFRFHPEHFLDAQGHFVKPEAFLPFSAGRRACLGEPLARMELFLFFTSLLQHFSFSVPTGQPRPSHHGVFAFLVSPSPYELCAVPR
- test protocol: Inhibition of CYP2D6 (unknown origin) at 10 uM
- Format: ADME
property measured: inhibition at 10 µM

In: Quick one: inhibition at 10 µM for CCN1CC(C)(C)OC(=O)C1CC(=O)Nc1ccc(C(C)C)cc1 (stereo unspecified) ?
Out: < 40%

----------
- test protocol: Apparent permeability from apical to basolateral side in human Caco2 cells
- Type: ADME, cell-based
- study conditions: Caco-2
Kindly supply the reported Papp A→B values for the records listed here.
I only need the number, in ×10⁻⁶ cm/s, no unit after it.

In: Tell me the measured Papp A→B of CCN1CC(C)(C)OC(=O)C1CC(=O)NCc1cccc(-c2ccccc2)c1 (configuration not stated) , please.
Out: 22

In: Give its Papp A→B value. Item: CCN1CC(C)(C)OC(=O)C1CC(=O)Nc1ccc(C(C)C)cc1 (configuration not stated)
Out: 65

----------
- experimental system: CYP3A4 (Homo sapiens, UniProt P08684)
- Sequence (P08684 whole entry): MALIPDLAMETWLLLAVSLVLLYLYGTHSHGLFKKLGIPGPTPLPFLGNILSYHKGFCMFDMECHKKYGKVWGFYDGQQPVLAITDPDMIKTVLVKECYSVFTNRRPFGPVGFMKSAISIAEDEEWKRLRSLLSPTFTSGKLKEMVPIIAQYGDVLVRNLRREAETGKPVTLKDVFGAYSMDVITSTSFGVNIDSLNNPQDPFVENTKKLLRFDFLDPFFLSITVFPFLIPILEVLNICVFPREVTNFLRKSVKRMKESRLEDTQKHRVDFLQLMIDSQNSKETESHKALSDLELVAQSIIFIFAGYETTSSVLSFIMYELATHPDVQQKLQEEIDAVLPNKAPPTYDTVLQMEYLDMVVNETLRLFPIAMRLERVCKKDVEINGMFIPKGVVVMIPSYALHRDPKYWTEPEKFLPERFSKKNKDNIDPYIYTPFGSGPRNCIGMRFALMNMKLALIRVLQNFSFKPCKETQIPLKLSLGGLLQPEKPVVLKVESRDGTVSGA
- test protocol: Inhibition of CYP3A4 (unknown origin) at 10 uM
- Type: ADME
property measured: inhibition at 10 µM

In: // inhibition at 10 µM lookup, key: CCN1CC(C)(C)OC(=O)C1CC(=O)Nc1ccc(C(C)C)cc1 (stereo unspecified)
Out: < 40%
